Each recorded value in this set is attributed to paper PMC4310348.

- assayComment: Solubility of lasalocid in various solvents and milk
- Format: physicochemical
- conditionsUsed: methanol, organic solvent or mixture, thermodynamic from solid
endpoint: solubility at 24 h (mg/mL)
// note: answer is a bare numeric in mg/mL

Endpoint output: solubility at 24 h of "CC[C@@H](C(=O)[C@@H](C)[C@@H](O)[C@H](C)CCc1ccc(C)c(O)c1C(=O)O)[C@H]1O[C@](CC)([C@H]2CC[C@](O)(CC)[C@H](C)O2)C[C@@H]1C" . Value? 84.7

----------
- assayComment: pH-solubility determination of lasalocid
- Format: physicochemical
- conditionsUsed: Universal buffer, pH 8, aqueous buffer, thermodynamic from solid
endpoint: solubility at 24 h (µg/mL)
// note: answer is a bare numeric in µg/mL

Endpoint output: solubility at 24 h of CC[C@@H](C(=O)[C@@H](C)[C@@H](O)[C@H](C)CCc1ccc(C)c(O)c1C(=O)O)[C@H]1O[C@](CC)([C@H]2CC[C@](O)(CC)[C@H](C)O2)C[C@@H]1C [lasalocid] . Value? 9.66
